Catalogue of z-score readings, one per entry.
# EXPERIMENTAL DETAILS: blood-stage malaria parasite viability loss – strain 3D7, DAPI fluorescence, 100 nL, primary screen (AID 1184);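 further: parasites grown inside human red blood cells in medium with human serum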
# CONDITION PARAMETERS: P. falciparum 3D7 growth, 3 d, higher = more signal
Number only, please.

STRUCTURE STRING	READOUT TYPE	OBSERVED VALUE
CC(C)=C1C(=O)C(c2ccccc2)=C2CN3C(=O)N(CCc4ccccc4)C(=O)[C@]3(C)[C@H]21	z-score	0.127
C=CCNC(=O)[C@H]1[C@@H]2C(=O)O[C@@H](c3ccccc3)[C@@H](c3ccccc3)N2[C@@H](c2ccc(OCCO)cc2)[C@]12C(=O)Nc1ccc(C#CC3(O)CCCCCC3)cc12	z-score	-2.09
COc1ccc([Si](C)(C)[C@@H]2[C@@H](CC(=O)N3CCC[C@H]3CO)O[C@]3(C(=O)N(Cc4cccc(N5CCCCC5=O)c4)c4ccccc43)[C@H]2C)cc1	z-score	-1.26
CCCC=C(CCC)[C@@H](NC(=O)OCC(C)C)c1ccc(C(=O)OC)cc1	z-score	-0.102

Pending molecule:
Input line: Field request: z-score | item: CCCCCCc1nc(Cc2cc(OC)c(OC)c(OC)c2)cc2c1[Si](C(C)C)(C(C)C)O[C@H]2c1ccccc1
Output line: -2.34

* * *

# STUDY SYSTEM: Calmodulin-1 (Homo sapiens) (UniProt P0DP23)
# EXPERIMENTAL DETAILS: small molecules binding calmodulin-1 with EGTA – biochemical, small-molecule microarray, Cy5-labelled CALM1, profiling panel (AID 1111);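 further: labelled calmodulin applied in Tris saline Tween buffer holding calcium plus EGTA and DTT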
# CONDITION PARAMETERS: Cy5-CALM1 binding fluorescence, higher = more signal
Catalogue of composite z-score readings, one per entry.
Number only, please.

Example results:
STRUCTURE STRING	composite z-score
COC(=O)C[C@H]1O[C@@]2(C[C@@H]1[Si](C)(C)C)C(=O)N(C)c1ccccc12	-0.197
C=C(CCCC)/C(=C/C[C@@H](OC(C)=O)c1ccc(CO)o1)c1cnc2ccccc2c1	0.626
O=C1O[C@@H](c2ccccc2)[C@@H](c2ccccc2)N2[C@@H](c3ccc(OCCO)cc3)[C@]3(C(=O)Nc4ccc(C#CC5(O)CCCCCC5)cc43)[C@@H](C(=O)Nc3nc4ccccc4s3)[C@H]12	1.6

Pending compound:
Input line: Field request: composite z-score | item: CCCCCCc1nc(-c2ccc(-c3ccc(Cl)c(Cl)c3)o2)cc2c1[Si](C(C)C)(C(C)C)OC2
Output line: -0.444

* * *

# EXPERIMENTAL DETAILS: FRG1 expression reporter modulators in myotubes – cell-based, C2C12 myotubes, firefly/Renilla luciferase, luminescence, FRG1 inhibition for FSHD, primary screen (AID 1084)
# CONDITION PARAMETERS: FRG1 promoter luciferase, higher = more signal, called active from +8 up or from −8 down
Rule: z-score under -0.8 gives No, otherwise Yes.

Recorded results for 3 compounds are shown here.
COMPOUND	GROUP LABEL
Cc1ccc(S[C@]2(C(=O)NCCCN(C)C)CC(=O)N(Cc3ccccc3C(F)(F)F)[C@@H]2c2ccc(CO)cc2I)cc1	Yes
CC(C)C(=C=CC[C@H](O)c1ccccc1OCCO)C[C@H](O)c1cc(Cl)cc(Cl)c1O	No
COC(=O)[C@@]1(Cc2ccc(F)cc2)[C@H]2c3cc(C(=O)N4CCCC4)n(Cc4cc(F)cc5c4OCOC5)c3C[C@H]2CN1C(=O)c1ccccc1	Yes

Input line: Identify whether the reported z-score of the following compound is -0.8 or greater: COC(=O)C[C@H]1O[C@@]2(C[C@@H]1[Si](C)(C)C)C(=O)N(C)c1ccccc12
Output line: No

Input line: Identify whether the reported z-score of the following compound is -0.8 or greater: Cc1ccc(S[C@]2(C(=O)NC(C)C)CC(=O)N(C3CCCCC3)[C@@H]2c2ccc(CO)cc2I)cc1
Output line: No

Input line: Identify whether the reported z-score of the following compound is -0.8 or greater: COC(=O)C(CC#Cc1ccc2c(c1)[C@]1(C(=O)N2)[C@H](C(=O)N2CCc3cc(OC)c(OC)cc3C2)[C@H]2C(=O)O[C@H](c3ccccc3)[C@H](c3ccccc3)N2[C@@H]1c1ccccc1OCCO)C(=O)OC
Output line: Yes

Input line: Identify whether the reported z-score of the following compound is -0.8 or greater: O=C1C2C=CC(C(O)c3c(F)cccc3Cl)N(Nc3ccc([N+](=O)[O-])cc3)C2C(=O)N1c1ccccc1 (stereo unspecified)
Output line: No

* * *

# System: glycogen synthase kinase-3 (GSK3A per assay name; protocol says GSK3B)
# EXPERIMENTAL DETAILS: compounds binding glycogen synthase kinase-3 – biochemical, small-molecule microarray, 635 nm fluorescence, GSK3A, primary screen (AID 1103); further: the record names both GSK3A and GSK3B
# CONDITION PARAMETERS: fluorescence 635 nm, higher = more signal
Could you please classify the records by composite z-score using these ranges: lo: < 0.4; med: ≥ 0.4 and < 1; hi: ≥ 1

Recorded results for 10 molecules are shown here.
MOLECULE	STUDY SYSTEM	GROUP LABEL
CCCCCC1=C2CNC(CC(C)C)(C(=O)OC)C=C2C(C)C1=O (stereo not drawn)	glycogen synthase kinase-3 (GSK3A per assay name; protocol says GSK3B)	lo
COc1ccc([Si](C)(C)[C@@H]2[C@@H](CC(=O)N3Cc4ccccc4C[C@H]3CO)O[C@]3(C(=O)N(Cc4cccc(N5CCOC5=O)c4)c4ccccc43)[C@H]2C)cc1	glycogen synthase kinase-3 (GSK3A per assay name; protocol says GSK3B)	med
CN(C)c1ccc(C(O)C2C=CC3C(=O)N(Cc4ccccc4)C(=O)C3N2n2cnnc2)cc1 (stereo not drawn)	glycogen synthase kinase-3 (GSK3A per assay name; protocol says GSK3B)	lo
O=C(NC1CC1)[C@@H]1c2ccccc2C(=O)N(CC23CC4CC(CC(C4)C2)C3)[C@H]1c1ccc(CO)cc1	glycogen synthase kinase-3 (GSK3A per assay name; protocol says GSK3B)	hi
Cc1ccc(S[C@]2(C(=O)NC(C)C)CC(=O)N(C3CCCCC3)[C@@H]2c2ccc(CO)cc2I)cc1	glycogen synthase kinase-3 (GSK3A per assay name; protocol says GSK3B)	med
C=CCC(OC(C)=O)[C@@H]1[C@@H](N(Cc2cccc3ccccc23)C(=O)c2ccc(-c3ccccc3)cc2)c2cc(OCCCO)ccc2N1C(=O)Cc1ccc2ccccc2c1 (stereo partly drawn)	glycogen synthase kinase-3 (GSK3A per assay name; protocol says GSK3B)	lo
COc1ccc([Si](C)(C)[C@H]2[C@H](CCO)O[C@@]3(C(=O)N(Cc4cccc(N(C=O)c5ccccc5)c4)c4ccccc43)[C@@H]2C)cc1	glycogen synthase kinase-3 (GSK3A per assay name; protocol says GSK3B)	hi
CC(C)C[C@@H]1NC(=O)[C@@]23C(=O)N[C@@H](Cc4ccccc4)C2[C@H](C)[C@@]2(C)O[C@H]2C3/C=C/C/C=C\CNC(=O)CNC1=O (stereo partly drawn)	glycogen synthase kinase-3 (GSK3A per assay name; protocol says GSK3B)	lo
COc1cc(C(O)C2C=CC3C(=O)N(c4ccccc4)C(=O)C3N2Nc2ccccc2F)cc(OC)c1OC (stereo not drawn)	glycogen synthase kinase-3 (GSK3A per assay name; protocol says GSK3B)	hi
O=C(NCCN1CCOCC1)[C@@H]1c2ccccc2C(=O)N(Cc2ccc(OC(F)(F)F)cc2)[C@H]1c1ccc(CO)cc1	glycogen synthase kinase-3 (GSK3A per assay name; protocol says GSK3B)	lo

Input line: Class label required: COC(=O)[C@]1(CCC(=O)OC(C)(C)C)N=C(c2ccc(OCCCO)cc2)O[C@@H]1c1ccccc1N=[N+]=[N-]
Output line: lo

Input line: Class label required: CCCc1cc2c(n1CCc1ccc(Cl)cc1)C(C)C1CN(C(=O)c3ccccc3)C(C)(C(=O)OC)C21 (stereo not drawn)
Output line: lo

Input line: Class label required: COc1ccc(C#Cc2ccc3c(c2)[C@]2(C(=O)N3)[C@H](C(=O)O)[C@H]3C(=O)O[C@H](c4ccccc4)[C@H](c4ccccc4)N3[C@@H]2c2ccccc2OCCO)cc1
Output line: hi

Input line: Class label required: CCCN1C(=O)[C@]2(CCC(=O)OC(C)(C)C)N=C(c3ccc(OCCCO)cc3)O[C@@H]2c2ccccc21
Output line: hi

Input line: Class label required: C#CCN1[C@@H](Cc2ccccc2)C(=O)O[C@H](Cc2ccccc2)[C@@H]1/C=C/C1CC1
Output line: med

Input line: Class label required: CN(C)CCCNC(=O)[C@@]1(C)c2ccccc2C(=O)N(Cc2ccc(OC(F)(F)F)cc2)[C@H]1c1ccc(CO)cc1
Output line: lo

Input line: Class label required: Cc1ccc(C(C)CC(O)C2C=CC3C(=O)N(C)C(=O)C3N2Nc2ccccc2)o1 (stereo not drawn)
Output line: hi

Input line: Class label required: OCCCC1=CC(c2ccc(CN3CCCC3)cc2)N(Cc2cccc(OC(F)(F)F)c2)CC1 (stereo not drawn)
Output line: lo

Input line: Class label required: O=C(NCc1ccccc1)[C@@H]1c2ccccc2C(=O)N(Cc2ccc(OC(F)(F)F)cc2)[C@H]1c1ccc(CO)cc1
Output line: lo

Input line: Class label required: CN1C(=O)C2C=CC(C(O)c3ccc(-c4ccccc4)s3)N(NC(=O)OC(C)(C)C)C2C1=O (stereo not drawn)
Output line: med

Input line: Class label required: CCCCC(O)C1C=CC2C(=O)N(c3ccccc3)C(=O)C2N1Nc1ccc([N+](=O)[O-])cc1 (stereo not drawn)
Output line: hi

Input line: Class label required: NCCCCCCNC(=O)[C@@H]1C[C@@H]2C(=O)N3CCC[C@H]3C(=O)N2[C@@H]1c1cccc(OCCO)c1
Output line: med

Input line: Class label required: COC(=O)[C@@]1(Cc2ccccc2)N=C(c2ccc(OCCCO)cc2)O[C@H]1c1ccccc1CN=[N+]=[N-]
Output line: med

Input line: Class label required: COc1ccc([Si](C)(C)[C@H]2[C@H](CC(=O)N3CCC[C@H]3CO)O[C@@]3(C(=O)N(Cc4ccc(N5CCCCC5=O)cc4)c4ccccc43)[C@@H]2C)cc1
Output line: hi

Input line: Class label required: COC(=O)C(CC#Cc1ccc2c(c1)[C@]1(C(=O)N2)[C@H](C(=O)NC[C@H](O)c2ccccc2)[C@H]2C(=O)O[C@H](c3ccccc3)[C@H](c3ccccc3)N2[C@@H]1c1ccccc1OCCO)C(=O)OC
Output line: hi

Input line: Class label required: COc1ccc(NN2C(C(O)c3ccc(I)cc3)C=CC3C(=O)N(C4CCCCC4)C(=O)C32)cc1 (stereo not drawn)
Output line: hi
